- Method: inhibitors of Clostridioides difficile proliferation – 4-point retest, confirmation (AID 1224921);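 note: plate controls were DMSO wells for no effect and levofloxacin 16 µg/mL wells for full effect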
- Study conditions: Clostridioides difficile clinical isolate growth, OD600, 24 h, stronger effect = lower value; at 30 µM unless noted
The campaign covered roughly 1,400 compounds. About 350 (25%) were called active. Roughly 2% stayed inconclusive and do not appear here. A selection follows. Results with a measured potency or affinity are listed apart.
Measurement name: max activity

> print(dat)
                            smiles.notation        test.value
1  CO[C@H](CN(C)Cc1cc(F)ccc1F)[C@@H](C)CN(C(=O)Nc1ccc(F)cc1)[C@@H](C)CO  21.5% (inactive)

Dear colleague, I am looking for the recorded max activity of the following molecule: CCC(=O)N1C[C@@H](C)[C@@H](OC)CN(C)C(=O)c2ccc(NC(=O)Nc3ccccc3)cc2OC[C@H]1C
-13.3% [at 1.95 µM] (inactive)

Dear colleague, I am looking for the recorded max activity of the following molecule: C[C@H]1CN([C@@H](C)CO)S(=O)(=O)c2ccc(C3=CCCCC3)cc2O[C@H]1CN(C)Cc1ccncc1
40.6% (inactive)

Dear colleague, I am looking for the recorded max activity of the following molecule: CO[C@@H]1CN(C)C(=O)c2cc(NC(=O)C3CCC3)ccc2OC[C@@H](C)N(Cc2ccncc2)C[C@@H]1C
-8.85% [at 8 µM] (inactive)

Dear colleague, I am looking for the recorded max activity of the following molecule: CC(C)=CCN(C(=O)C#Cc1ccccc1)[C@H](CO)c1ccccc1
14.2% [at 1.95 µM] (inactive)

Dear colleague, I am looking for the recorded max activity of the following molecule: C[C@@H]1CN([C@@H](C)CO)C(=O)Cc2cc(N(C)C)ccc2O[C@H]1CN(C)Cc1ccccc1
9.89% (inactive)

Dear colleague, I am looking for the recorded max activity of the following molecule: CO[C@H]1CN(C)C(=O)c2cc(NC(=O)NC3CCCCC3)ccc2OC[C@@H](C)N(CCc2ccccc2)C[C@H]1C
25.3% (inactive)

---

- Method: inhibitors of Clostridioides difficile proliferation – 4-point retest, confirmation (AID 1224921);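 note: plate controls were DMSO wells for no effect and levofloxacin 16 µg/mL wells for full effect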
- Study conditions: Clostridioides difficile clinical isolate growth, OD600, 24 h, stronger effect = lower value; at 30 µM unless noted
The whole screen tested about 1,400 compounds, of which about 350 (25%) were called active. Roughly 2% stayed inconclusive and do not appear here. Only a sample is shown. Results with a measured potency or affinity are listed apart.
Recorded max activity values for a group of compounds are listed next.

Worked cases, max activity given:
> print(dat)
                            smiles.notation                      test.value
1  COc1ccccc1S(=O)(=O)N[C@H]1C=C[C@H](CC(=O)N2CCCCC2)O[C@@H]1CO  -11.2% [at 1.95 µM] (inactive)
2  CNC[C@H]1OCCCC[C@@H](C)Oc2ccc(NC(=O)Nc3ccc(C(F)(F)F)cc3)cc2C(=O)N([C@@H](C)CO)C[C@H]1C      33.8% [at 8 µM] (inactive)
3  C[C@@H]1CN([C@H](C)CO)C(=O)c2c(c3ccccc3n2C)-c2ccccc2CO[C@@H]1CN(C)Cc1ccncc1     24.2% [at 35 µM] (inactive)
4  COc1ccccc1C(=O)Nc1ccc2c(c1)OC[C@@H](C)N(CC1CC1)C[C@@H](C)[C@H](OC)CN(C)C2=O                19.1% (inactive)
5  C[C@@H]1CN([C@H](C)CO)S(=O)(=O)c2ccc(C#CCC3CCCC3)cc2O[C@@H]1CN(C)C(=O)CC1CC1                36.7% (inactive)

Dear colleague, I am looking for the recorded max activity of the following compound: C[C@@H]1CN([C@H](C)CO)S(=O)(=O)c2ccc(C#Cc3ccc(F)cc3)cc2O[C@@H]1CN(C)S(C)(=O)=O
-24% [at 1.95 µM] (inactive)

Dear colleague, I am looking for the recorded max activity of the following compound: CCCN1C[C@@H](C)[C@@H](OC)CN(C)C(=O)c2cc(NC(=O)c3cccc(OC)c3)ccc2OC[C@@H]1C
-16.1% [at 1.95 µM] (inactive)

Dear colleague, I am looking for the recorded max activity of the following compound: CNC[C@@H]1OCCCC[C@@H](C)Oc2ccc(NC(=O)Nc3cccc4ccccc34)cc2C(=O)N([C@H](C)CO)C[C@H]1C
27.3% (inactive)

Dear colleague, I am looking for the recorded max activity of the following compound: CO[C@H]1CN(C)C(=O)c2cc(NC(C)=O)ccc2OC[C@H](C)N(Cc2nccs2)C[C@H]1C
16% (inactive)

Dear colleague, I am looking for the recorded max activity of the following compound: COc1ccc(NC(=O)Nc2ccc3c(c2)[C@H]2C[C@H](CC(=O)N[C@@H](C)c4ccccc4)O[C@@H](CO)[C@H]2O3)cc1
-8.28% [at 2.1 µM] (inactive)

Dear colleague, I am looking for the recorded max activity of the following compound: C/C=C/c1cnc2c(c1)C(=O)N([C@H](C)CO)C[C@@H](C)[C@@H](CN(C)Cc1ccc(F)cc1)O2
-15% [at 0.5 µM] (inactive)
